- System: 786-0
- assay-comment: NCI tumour cell line growth inhibition, 48 h
Calls of active or inactive are those of the source. Rule as the data show it: active = GI50 up to about 1.1 µM and inactive = higher.
metric-name: GI50

Please review the following examples before continuing.
* COc1cc(C2SCC(=O)N2c2ccc(Oc3ccc(Cl)cc3)c(Cl)c2)cc(OC)c1OC (stereo unspecified) | 18.3 µM (inactive)
* c1ccc(CN2C3C4N(Cc5ccccc5)C2C2N(Cc5ccccc5)C(C(N2Cc2ccccc2)N4Cc2ccccc2)N3Cc2ccccc2)cc1 | > 100 µM (inactive)
* Nc1csc(-c2scc3c2OCCO3)c1N | 17.3 µM (inactive)

I have this molecule here, `COc1cc2oc(-c3ccc4c(c3)OCO4)c(OC)c(=O)c2c(OC)c1O` , and I need its recorded GI50.
10.9 µM (inactive)

Try the molecule `CCCCNS(=O)(=O)c1n[nH]c(=O)[nH]c1=O`
> 100 µM (inactive)

Try the molecule c1ccc2c(c1)N=C(c1cccc3ccccc13)CC(c1cccc3ccccc13)S2 (stereo unspecified)
3.8 µM (inactive)

Try the molecule `COc1ccccc1NC(=O)CC(=O)n1nc(C)c(/N=N/c2ccccc2C(=O)O)c1C`
> 100 µM (inactive)

Try the molecule `Cc1ccc2nc(Cl)c(/C=N/N3C(=O)/C(=C/Cc4ccco4)N=C3c3ccccc3)cc2c1`
20.4 µM (inactive)

Try the molecule CCCC(Sc1nc(N)nc2nc[nH]c12)C(=O)O (stereo unspecified)
92.5 µM (inactive)

Try the molecule `O=C(c1ccccc1)C1S(=O)(=O)OCCOS1(=O)=O`
> 100 µM (inactive)

Try the molecule `Cc1ccc(C(=O)N2CCN(C(=O)c3ccc(C)cc3)c3ccccc32)cc1`
3.41 µM (inactive)

###

Quick reference for GI50 among some compounds
- Tested on: ACHN
- assay-comment: NCI tumour cell line growth inhibition, 48 h
Calls of active or inactive are those of the source. No stated cut-off is given here; in the data, active = GI50 up to about 1.1 µM and inactive = higher.

Please review the following examples before continuing.
- O=C1C2C=CC(n3[nH]c(=O)n(Cc4ccccc4)c3=O)CC2C(=O)N1c1ccc(Br)cc1 (centres undefined): > 100 µM (inactive)
- C=C1C(=O)CC2C1CC(=O)/C(C)=C/CCC(C)(O)C2O (centres undefined): 2.37 µM (inactive)
- O=[N+]([O-])c1ccc2nc3ccccc3cc2c1: 3.04 µM (inactive)
- Cc1ccc2nc(Cl)c(/C=N/N3C(=O)/C(=C/Cc4ccco4)N=C3c3ccccc3)cc2c1: 72.3 µM (inactive)

I have this compound here, COC(=O)C1=C(C[S+]([O-])c2ccc([N+](=O)[O-])cc2[N+](=O)[O-])C2C=CC1C2 (centres undefined) , and I need its recorded GI50.
19.8 µM (inactive)

Try the compound `COc1cc2oc(-c3ccc4c(c3)OCO4)c(OC)c(=O)c2c(OC)c1O`
67.8 µM (inactive)

Try the compound `O=C1CC[C@@H](S(=O)(=O)c2ccccc2)[C@@H](/C=C/c2ccccc2)O1`
> 100 µM (inactive)

Try the compound `O=C(O)c1cc(NCc2cc(O)ccc2O)ccc1O`
> 100 µM (inactive)

Try the compound `CC1(C)C(=NNC(=O)C[N+](C)(C)C)C(C)(C)C1=NNC(=O)C[N+](C)(C)C`
> 100 µM (inactive)

###

- System: K562
- assay-comment: NCI tumour cell line growth inhibition, 48 h
Active and inactive are the calls of the source. No stated cut-off is given here; in the data, active = GI50 up to about 1.1 µM and inactive = higher.
Pick one: active, inactive

Worked set:
- Cn1c(=O)c2c3ccccc3n(C)c2n(C)c1=O: inactive
- O=C(CC1(O)C(=O)Nc2ccccc21)c1ccncc1 (centres undefined): inactive
- O=C(C=P(c1ccccc1)(c1ccccc1)c1ccccc1)c1ccccc1-c1ccccc1C(=O)C=P(c1ccccc1)(c1ccccc1)c1ccccc1: active

Now look at this entry.
Record request — test call for `O=C1CSC(=S)N1c1ccco1`
inactive

###

- System: OVCAR-5
- assay-comment: NCI tumour cell line growth inhibition, 48 h
Active and inactive are the calls of the source. Rule as the data show it: active = GI50 up to about 1.1 µM and inactive = higher.
metric-name: GI50

Please review the following examples before continuing.
* O=[N+]([O-])c1ccc2nc3ccccc3cc2c1 | 2.48 µM (inactive)
* Clc1nc(Cl)nc(NC23CC4CC(CC(C4)C2)C3)n1 | 19.5 µM (inactive)
* COc1ccc(C2=NC(CO)[C@H](c3ccccc3)O2)cc1OC (stereo partly drawn) | > 100 µM (inactive)
* Cc1cc(O)c(-c2cc(O)c(C)cc2O)cc1O | 16.6 µM (inactive)
* COc1ccc2c(c1)Oc1cc(O)ccc1[C@@H]2c1ccccc1C(=O)NC(C)c1ccccc1 (stereo partly drawn) | 16.4 µM (inactive)

I have this compound here, Cc1ccc(C2NC(=N)NC3=C2CCOc2c3ccc3ccccc23)cc1 (stereo not drawn) , and I need its recorded GI50.
41.6 µM (inactive)

Try the compound C=C1C(=O)CC2C1CC(=O)/C(C)=C/CCC(C)(O)C2O (stereo not drawn)
17.5 µM (inactive)

Try the compound `CCc1cccc(NC(=O)c2cc(/C=C/c3ccccc3)nc(S)n2)c1`
> 100 µM (inactive)

###

Quick reference for GI50 among some compounds
- System: ACHN
- assay-comment: NCI tumour cell line growth inhibition, 48 h
Active and inactive are the calls of the source. No stated cut-off is given here; in the data, active = GI50 up to about 1.1 µM and inactive = higher.

I have this compound here, `COc1ccc(/C=C/c2cc(OC)c(OC)c(OC)c2)cc1OC` , and I need its recorded GI50.
> 100 µM (inactive)

###

- Tested on: SN12C
- assay-comment: NCI tumour cell line growth inhibition, 48 h
Activity calls are given as the source filed them. Rule as the data show it: active = GI50 up to about 1.1 µM and inactive = higher.
metric-name: GI50

• COC(=O)c1nc(NC#N)nc(O)c1C = > 100 µM (inactive)
• COC1O[C@@H]2COC(C)(C)O[C@@H]2C(=O)N1Nc1ccc([N+](=O)[O-])cc1 (stereo partly drawn) = > 100 µM (inactive)

Then this compound:
I have this compound here, CCCCCCCC(CC(=O)NC(CO)C(=O)NC(CO)CC(C)C)OC(=O)CC(CCCCCCC)OC(=O)CC(CCCCCCC)OC1OC(C)C(O)C(OC2OC(C)C(O)C(OC(C)=O)C2O)C1O (stereo not drawn) , and I need its recorded GI50.
7.05 µM (inactive)

###

- Tested on: M14
- assay-comment: NCI tumour cell line growth inhibition, 48 h
The source made the active and inactive calls. Rule as the data show it: active = GI50 up to about 1.1 µM and inactive = higher. Non-standard residues stand in square brackets, D forms with d. Residues, ends and D or L forms follow the SMILES beside them. ξ: configuration not given here. ξLac(3-iPr) = CC(C)CC(O)C(=O)O; NMeV = CN[CH](C(=O)O)C(C)C; NMeA = CN[CH](C)C(=O)O; βAla = NCCC(=O)O
Pick one: True = active, False = inactive

Worked set:
- O=C(Nc1ccccc1-c1nn(C(=S)Nc2ccccc2)c(=S)n(C(=S)Nc2ccccc2)c1=O)C(F)(F)F: False
- Cc1ccnc2[nH]c3ccccc3c(=O)c12: False
- CC(C)(O)C(O)COc1c2c(cc3oc(=O)ccc13)OCO2 (centres undefined): False
- CCOC(=O)c1[nH]c2c(OC)n[n+]([O-])cc2c1[N+](=O)[O-]: False

Record request — test call for OC(c1cc(-c2ccc(C(F)(F)F)cc2)nc(C(F)(F)F)c1)C1CCCCN1 (centres undefined) [ENPIROLINE PHOSPHATE]
False

Try the compound `COc1ccc(/C=C2\N=C(SC)NC2=O)cc1`
False

Try the compound CCC(C)C1NC(=O)C2CCCN2C(=O)C(CC(C)C)OC(=O)CCNC(=O)C(C)N(C)C(=O)C(C(C)C)N(C)C1=O (centres undefined) (cyclo([ξLac(3-iPr)]PI[NMeV][NMeA][βAla]); configuration not given here)
False

###

- System: LOX IMVI
- assay-comment: NCI tumour cell line growth inhibition, 48 h
Calls of active or inactive are those of the source. Cut-off read from the data, not from the text of the source: active = GI50 up to about 1.1 µM and inactive = higher.
Pick one: active, inactive

Worked set:
• Nc1ccc(Nc2cc(O)nc(O)n2)cc1 = inactive
• CC(C)=C/C(CC(O)(C(F)(F)F)C(F)(F)F)=N\O = inactive
• C(=N\NC1=NCCN1)/c1cccc2cc3ccncc3nc12 = inactive
• COc1c(-c2ccc(O)c(O)c2)oc2c(O)c(O)cc(O)c2c1=O = inactive

Record request — test call for `O=P1(c2ccccc2)c2ccccc2-c2ccccc21`
inactive

Try the molecule `CCOC(=O)c1[nH]c2nc(SC)nc(NC)c2c1N`
inactive

Try the molecule `O=C1Nc2cccc(Cl)c2/C1=C\c1c(Cl)nc2sccn12`
inactive

Try the molecule `COc1cc(OC)c(/C=N\Nc2nc3ccccc3c(=O)n2-c2ccccc2)c(OC)c1`
inactive

Try the molecule `Cc1ccc(C(=O)CC(O)(C(F)(F)F)C(F)(F)F)cc1[N+](=O)[O-]`
inactive

Try the molecule `Cc1ccc2nc(-c3ccc(NC(=O)c4ccc(N)cc4)c(S(=O)(=O)O)c3)sc2c1`
inactive

Try the molecule `COc1ccc(/C=C(/c2ccccc2)c2c(C)cc(C)c(/C(=C\c3ccc(OC)cc3)c3ccccc3)c2/N=N/c2cc(C)cc(C)c2)cc1`
inactive

Try the molecule `Cc1c(-c2coc(-c3ccc([N+](=O)[O-])cc3)n2)c(=O)n(-c2ccccc2)n1C`
inactive

Try the molecule `COC(=O)/C=C/c1c(CC=C(C)C)ncn1C`
inactive

Try the molecule `C/C(=N\Nc1nc2ccccc2s1)c1ccc2ccccc2n1`
inactive

Try the molecule `Cc1cccc2c(=O)c3cccc(CC(=O)O)c3oc12`
inactive
